Tested on: hAM2 receptor (CALCRL:RAMP3) (Homo sapiens, UniProt O60896+Q16602)
Construct: expressed in transfected cells; host or cells: GeneBLAzer CALCRL:RAMP3-CRE-bla Freestyle 293F
Sequence (Q16602 23-461): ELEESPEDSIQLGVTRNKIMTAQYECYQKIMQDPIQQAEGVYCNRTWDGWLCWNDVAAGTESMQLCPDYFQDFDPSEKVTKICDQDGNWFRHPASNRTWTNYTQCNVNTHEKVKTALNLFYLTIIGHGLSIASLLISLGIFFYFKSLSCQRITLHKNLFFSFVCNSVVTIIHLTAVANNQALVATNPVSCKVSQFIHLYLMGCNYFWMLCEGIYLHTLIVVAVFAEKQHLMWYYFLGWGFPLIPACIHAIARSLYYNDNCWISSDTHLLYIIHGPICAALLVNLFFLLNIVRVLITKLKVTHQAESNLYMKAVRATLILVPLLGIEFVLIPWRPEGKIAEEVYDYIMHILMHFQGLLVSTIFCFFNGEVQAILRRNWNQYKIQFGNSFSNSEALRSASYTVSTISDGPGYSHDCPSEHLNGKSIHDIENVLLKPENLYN
Sequence (O60896 24-148): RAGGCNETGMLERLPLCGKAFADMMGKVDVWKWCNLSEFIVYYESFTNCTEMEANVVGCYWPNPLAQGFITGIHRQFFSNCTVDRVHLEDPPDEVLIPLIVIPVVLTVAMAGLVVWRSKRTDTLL
Assay comment: AM2 receptor antagonist activity measured by cAMP assay (HTRF)
Type: cell-based
Assay context: % MPE: percent of the maximal possible effect; agonist human adrenomedullin; read-out: hAM2-R Efficacy Antag (%) Ave
Numbered stars: 1 amine (or outer) side, 2 acyl side, 3 side chain; on linkers, the order of the positions; unused ones are H or OH. Bridge positions count the residues as written; N and C are the ends. Square brackets hold non-standard residues; d marks the D form. Peptide text beside a SMILES is read from it. * marks the point of attachment. Phe(3-CH2NH2) = O=C([C@H](Cc1cccc(CN[*:3])c1)N[*:1])[*:2]; Phe(3-CONH2) = NC(=O)c1cccc(C[C@H](N)C(=O)O)c1; Phe(2-CONH2) = NC(=O)c1ccccc1C[C@H](N)C(=O)O; X15 = N#CN=C(N)NCCC[C@H](N[*:1])C(=O)[*:2]; Orn(iPr) = CC(C)NCCC[C@H](N)C(=O)O; Oxazole2carbonyl = O=C(c1ncco1)*; 3Pal = N[C@@H](Cc1cccnc1)C(=O)O; Picolinoyl = O=C(c1ccccn1)*; ΔPro = O=C(O)[C@@H]1C=CCN1
Parameter measured: Emax
State the result as a value with its unit after it.

The examples below pair each entry with its known result.
1) CC(C)[C@@H]1NC(=O)[C@H](CC(=O)O)NC(=O)[C@H](CCCNC(=N)N)NC(=O)[C@@H](NC(=O)[C@H](Cc2cccc(CN)c2)NC(=O)[C@H](NC(=O)c2ncco2)C(C)C)CSSC[C@@H](C(=O)N[C@@H](Cc2cccnc2)C(N)=O)NC(=O)[C@H](Cc2cccc(C(N)=O)c2)NC(=O)[C@@H]2C=CCN2C(=O)CNC1=O [Compound 23] (Oxazole2carbonyl-[dV][Phe(3-CH2NH2)]CRDVG[ΔPro][Phe(3-CONH2)]C[3Pal]-NH2; disulfide 3-10) = 100%
2) CC(C)NCCC[C@@H]1NC(=O)[C@@H](NC(=O)[C@H](Cc2ccccc2C(N)=O)NC(=O)[C@H](NC(=O)c2ncco2)C(C)C)CSSC[C@@H](C(=O)N[C@@H](Cc2cccnc2)C(N)=O)NC(=O)[C@H](Cc2ccc(O)cc2)NC(=O)[C@@H]2C=CCN2C(=O)CNC(=O)[C@H](C(C)C)NC(=O)[C@H](CC(=O)O)NC1=O [Compound 57] (Oxazole2carbonyl-[dV][Phe(2-CONH2)]C[Orn(iPr)]DVG[ΔPro]YC[3Pal]-NH2; disulfide 3-10) = 99%

What does the record list as Emax for CC(C)[C@@H]1NC(=O)[C@H](CC(=O)O)NC(=O)[C@H](CCCNC(N)=NC#N)NC(=O)[C@@H](NC(=O)[C@H](Cc2ccc(O)cc2)NC(=O)[C@H](NC(=O)c2ccccn2)C(C)C)CSSC[C@@H](C(=O)N[C@@H](Cc2cccnc2)C(N)=O)NC(=O)[C@H](Cc2ccccc2)NC(=O)[C@@H]2CCCN2C(=O)CNC1=O [Compound 26] (Picolinoyl-[dV]YC[X15]DVGPFC[3Pal]-NH2; disulfide 3-10) ? 100%

====

Tested on: hAM2 receptor (CALCRL:RAMP3) (Homo sapiens, UniProt O60896+Q16602)
Construct: expressed in transfected cells; host or cells: GeneBLAzer CALCRL:RAMP3-CRE-bla Freestyle 293F
Assay comment: AM2 receptor antagonist activity measured by cAMP assay (HTRF)
Format: cell-based
Assay context: GeneBLAzer CALCRL:RAMP3-CRE-bla Freestyle 293F cells; agonist human adrenomedullin; read-out: hAM2-R IC50 Ave
Numbered stars: 1 amine (or outer) side, 2 acyl side, 3 side chain; on linkers, the order of the positions; unused ones are H or OH. Bridge positions count the residues as written; N and C are the ends. Square brackets hold non-standard residues; d marks the D form. Peptide text beside a SMILES is read from it. * marks the point of attachment. Phe(3-CH2NH2) = O=C([C@H](Cc1cccc(CN[*:3])c1)N[*:1])[*:2]; Phe(3-CONH2) = NC(=O)c1cccc(C[C@H](N)C(=O)O)c1; X5 = O=C([C@H](Cc1ccc(CO)cc1)N[*:1])[*:2]; Oxazole2carbonyl = O=C(c1ncco1)*; 3Pal = N[C@@H](Cc1cccnc1)C(=O)O; Pyrrole2CO = O=C(c1ccc[nH]1)*; Picolinoyl = O=C(c1ccccn1)*; ΔPro = O=C(O)[C@@H]1C=CCN1; Orn = NCCC[C@H](N)C(=O)O
Parameter measured: pIC50
Numbers only, as −log10 of the molar value.

The examples below pair each entry with its known result.
1. CC(C)[C@@H]1NC(=O)[C@H](CC(=O)O)NC(=O)[C@H](CCCNC(=N)N)NC(=O)[C@@H](NC(=O)[C@H](Cc2ccc(O)cc2)NC(=O)[C@H](NC(=O)c2ccc[nH]2)C(C)C)CSSC[C@@H](C(=O)N[C@@H](Cc2cccnc2)C(N)=O)NC(=O)[C@H](Cc2ccccc2)NC(=O)[C@@H]2CCCN2C(=O)CNC1=O [Compound 49] (Pyrrole2CO-[dV]YCRDVGPFC[3Pal]-NH2; disulfide 3-10) = 7.05
2. CC(C)[C@@H]1NC(=O)[C@H](CC(=O)O)NC(=O)[C@H](CCCN)NC(=O)[C@@H](NC(=O)[C@H](Cc2ccc(O)cc2)NC(=O)[C@H](NC(=O)c2ccccn2)C(C)C)CSSC[C@@H](C(=O)N[C@@H](Cc2cccnc2)C(N)=O)NC(=O)[C@H](Cc2ccc(CO)cc2)NC(=O)[C@@H]2CCCN2C(=O)CNC1=O [Compound 25] (Picolinoyl-[dV]YC[Orn]DVGP[X5]C[3Pal]-NH2; disulfide 3-10) = 7.11

What does the record list as pIC50 for CC(C)[C@@H]1NC(=O)[C@H](CC(=O)O)NC(=O)[C@H](CCCNC(=N)N)NC(=O)[C@@H](NC(=O)[C@H](Cc2cccc(CN)c2)NC(=O)[C@H](NC(=O)c2ncco2)C(C)C)CSSC[C@@H](C(=O)N[C@@H](Cc2cccnc2)C(N)=O)NC(=O)[C@H](Cc2cccc(C(N)=O)c2)NC(=O)[C@@H]2C=CCN2C(=O)CNC1=O [Compound 23] (Oxazole2carbonyl-[dV][Phe(3-CH2NH2)]CRDVG[ΔPro][Phe(3-CONH2)]C[3Pal]-NH2; disulfide 3-10) ? 7.68

The reported measurements were obtained from patent US9969775B2.
